The reported measurements were obtained from ChEMBL document CHEMBL1800013.

Molecular target: Tyrosine-protein phosphatase non-receptor type 11 (Homo sapiens)
Experiment: Inhibition of SHP2 catalytic domain assessed as inhibition of pNPP to p-nitrophenol conversion at 50 uM after 5 mins by spectrophotometry
Assay Endpoint: inhibition (%)

Molecule	Assay Endpoint	Measured Result
COc1ccc(/C=C2\C(=O)N(c3ccc(C(=O)O)cc3)N=C2C)cc1[N+](=O)[O-]	inhibition	41
O=C(O)c1ccc(C2(c3ccc(C(=O)O)cc3)OC(=O)c3ccccc32)cc1	inhibition	1.5
O=C(O)Cc1c(C(=O)O)[nH]c2ccc(C(=O)O)cc12	inhibition	1
Cc1ccc(/C=C/C(=O)O)cc1S(=O)(=O)Nc1ccc(C(=O)O)cc1	inhibition	28
CC(=O)Nc1ccc(OS(=O)(=O)c2cccc(C(=O)O)c2)cc1	inhibition	3.5
Cc1ccc(C(=O)O)cc1NC(=O)[C@H]1CC=CC[C@@H]1C(=O)O	inhibition	6
O=C(O)c1ccccc1NS(=O)(=O)c1cccc(C(=O)N2CCCc3ccccc32)c1	inhibition	47
O=C(O)c1ccc(NCc2ccccc2)c(NC(=O)C2CC=CCC2C(=O)O)c1 (stereo not given)	inhibition	43

(1) O=C(O)c1cccc(-c2ccc(/C=C/[N+](=O)[O-])o2)c1
(2) O=C(CC(Cc1ccccc1)C(=O)O)Nc1ccc([N+](=O)[O-])cc1 (stereo not given)
Response body: label of entry with the larger inhibition; valid values 1 , 2 . Please respond with the label that marks your chosen entry.
1
